MEASUREMENT NOTES: PK of 20 kDa PEGylated relaxin polypeptides after a single subcutaneous injection in SD rats (Example 40)
Type: in vivo, Sprague-Dawley (SD) rats
RUN CONDITIONS: 0.5 mg/kg SC, SD rats
Description: This example evaluates the pharmacokinetic properties of 20 kDa PEGylated relaxin polypeptides following a single subcutaneous injection in SD rats. 1st order elimination model and Gauss-Newton (Levenberg-Hartley) model fit equation. […] FIG. 8A-8/compares group mean serum concentration versus time for all PEG-Relaxin compounds dosed. All dose groups had measurable serum PEG-Relaxin levels.
Non-standard residues stand in square brackets, D forms with d. No end group written: not given here. Phe(4-Ac) = CC(=O)c1ccc(C[C@H](N)C(=O)O)cc1
For each record, check the reported MRT: if it is below 30 h write Fulfilled, else write Not fulfilled.

Example cases with answers are listed next.
>>> class_assignment("RLX-A-AR18-20KPEG-001: relaxin variant, B1 Ala, pAF at A chain position R18, 20K PEGylated (chain 1 QLYSALANKCCHVGCTKXSLARFC; chain 2 ASWMEEVIKLCGRELVRAQIAICGMSTWS; not fully specified; non-natural residues)")
"Fulfilled"
>>> class_assignment("RLX-A-AV13-20KPEG-001: relaxin variant, B1 Ala, pAF substituted for valine 13 in the A chain, 20K PEG attached (chain 1 QLYSALANKCCHXGCTKRSLARFC; chain 2 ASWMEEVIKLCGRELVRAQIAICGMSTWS; not fully specified; non-natural residues)")
"Not fulfilled"
>>> class_assignment("RLX-A-BV7-20KPEG-001: relaxin variant, B1 Ala, pAF at B chain position V7, 20K PEGylated (chain 1 QLYSALANKCCHVGCTKRSLARFC; chain 2 ASWMEE[Phe(4-Ac)](PEG 20 kDa)IKLCGRELVRAQIAICGMSTWS; not fully specified (bridges); ends and bridges not checked)")
"Fulfilled"

Alright, here's another substance for you.
**Q:** Quick check: MRT of RLX-A-BW28-20KPEG-001: relaxin variant, B1 Ala, pAF at B chain position W28, 20K PEGylated (chain 1 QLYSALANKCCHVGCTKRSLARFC; chain 2 ASWMEEVIKLCGRELVRAQIAICGMST[Phe(4-Ac)](PEG 20 kDa)S; not fully specified (bridges); ends and bridges not checked) under 30 h?
**A:** Not fulfilled

These data points were gathered from patent US11786578B2.
